Tested on: CCRIS mutagenicity, Ames/micronucleus/aberration tests
Test: CCRIS mutagenicity studies
Settings: Test System: AMES SALMONELLA TYPHIMURIUM; Strain/Indicator: TA100; Metabolic Activation: NONE; Method: PREINCUBATION
Text: The CCRIS database contains chemical records with carcinogenicity, mutagenicity, tumor promotion, and tumor inhibition test results. It was developed by the National Cancer Institute (NCI). Data are derived from studies cited in primary journals, current awareness tools, NCI reports, and other sources. Test results have been reviewed by experts in carcinogenesis and mutagenesis. CCRIS provides historical information from the years 1985 - 2011. It is no longer updated. […]
The source made the active and inactive calls. How the calls were made is not given here.
Your reply should match one of these outcome classes. 1 (active), 0 (inactive)

Record excerpt, results attached:
I would be grateful if you could indicate the recorded call for Cc1cc2c(cc1N=O)OCO2 .
1

Tell me the recorded outcome of this test for COc1ccc(OC)cc1 .
0

Just curious, what result did O=[N+]([O-])c1ccc(Nc2ncnc3nc[nH]c23)cc1 get here?
0

Please state the recorded outcome for this molecule: CCCCCCCCCCCCCOC(=O)c1ccccc1C(=O)OCCCCCCCCCCCCC
0

Can you look up the reported call for ClC(Cl)=C(Cl)C(Cl)=C(Cl)Cl for me?
0

Further cases:
Outcome logged for C/C(O)=C(\N=O)C(=O)N(c1ccccc1)N(C)N=O in this assay:
1

Which outcome was assigned to C[C@]12CC[C@@H]3c4ccc(O)cc4CC[C@H]3[C@@]13CC[C@]2(O)[C@H](O)C3 in this test?
0

// outcome(item) with item = Clc1c(Cl)c(Cl)c2c(c1Cl)Oc1c(Cl)c(Cl)c(Cl)c(Cl)c1O2
0

Could you please tell me the result logged for O=C1C(=O)c2ccccc2-c2ccccc21 in this assay?
0

Tell me the recorded outcome of this test for N[C@@H](Cc1c[nH]c2ccc(O)cc12)C(=O)O .
0

What classification did Nc1ccccn1 end up with in this test?
0

----------
Tested on: CCRIS mutagenicity, Ames/micronucleus/aberration tests
Experiment: CCRIS mutagenicity studies
Conditions: Test System: AMES SALMONELLA TYPHIMURIUM; Strain/Indicator: TA98; Metabolic Activation: NONE; Method: PREINCUBATION
Active and inactive are the calls of the source. The rule behind the calls is not given here.
Allowed answers: label 1 = active, label 0 = inactive

Some solved entries appear below for comparison.
Call for entry Nc1cc([N+](=O)[O-])ccc1CO :
label 1

What call does the record list for O=[N+]([O-])c1cccc2c([N+](=O)[O-])cccc12 ?
label 1

Hi, sorry to bother you, what did the test record for Cc1cccc(O)c1C ?
label 0

Further cases:
Test call for this compound, please: Cc1cc(O)c2c(c1)C(=O)c1cccc(O)c1C2=O
label 0

State the result this test recorded for C=C(C)[C@H]1CC=C(C)CC1 .
label 0

Could you kindly confirm the outcome this assay logged for CC(O)CN (stereo not drawn) ?
label 0

Hi, do you know how [CH3][Hg+] came out in this test?
label 0

// outcome(item) with item = Cc1nc2ccc(N(C)C)c(C)c2nc1C
label 0

----------
Test system: CCRIS mutagenicity, Ames/micronucleus/aberration tests
Test: CCRIS mutagenicity studies
Settings: Test System: MOUSE LYMPHOMA; Strain/Indicator: L5178Y (TK+/TK-); Metabolic Activation: NONE; Method: SUSPENSION/PLATE
The source made the active and inactive calls. No rule for the calls is given here.
Allowed answers: YES for active, NO for inactive

Look over these answered cases.
I'd appreciate the recorded outcome for Nc1ccc(F)cc1 from this test.
YES

Record request — test call for Cc1c(O)c(=O)ccn1C
YES

Continuing:
Recorded test outcome, item C=Cc1ccc(O)c(OC)c1
NO

Look up the recorded call for Cc1cc(-c2ccc(N/N=C3\C=Cc4c(S(=O)(=O)O)cc(S(=O)(=O)O)c(N)c4C3=O)c(C)c2)ccc1N/N=C1\C=Cc2c(S(=O)(=O)O)cc(S(=O)(=O)O)c(N)c2C1=O in this test.
YES

Called result for O=[N+]([O-])c1ccc2[nH]ncc2c1
NO

Per the records of this test, what outcome belongs to CCC(C)ON=O (stereo not given) ?
YES

Entry Nc1ccn([C@H]2CC[C@@H](CO)O2)c(=O)n1 : call = ?
NO

Hi, do you know how CC(C)N=C=NC(C)C came out in this test?
YES

I would be grateful if you could indicate the recorded call for NC(=O)/N=N/C(N)=O .
NO

Record request — test call for O=c1[nH][nH]c2ccccc12
YES

Hi, sorry to bother you, what did the test record for CCCCCCCCCCCOC(=O)c1ccccc1C(=O)OCCCCCCCCCCC ?
NO

How did this test come out for CC(N)=S ?
YES

----------
Tested on: CCRIS mutagenicity, Ames/micronucleus/aberration tests
Assay: CCRIS mutagenicity studies
Settings: Test System: AMES SALMONELLA TYPHIMURIUM; Strain/Indicator: TA100; Metabolic Activation: NONE; Method: PREINCUBATION
Calls of active or inactive are those of the source. No rule for the calls is given here.
Your reply should match one of these outcome classes. active, inactive

What did this assay record as the result for C1COCCN1 ?
inactive

Entry O=C1C(Cl)=C(Cl)C(=O)C(Cl)=C1Cl : call = ?
inactive

Hi, do you know how Clc1cccc(C(Cl)(Cl)Cl)n1 came out in this test?
inactive

For CC(I)C1OCC(CO)O1 (centres undefined) , which call appears in the assay record?
active

Continuing:
Hello, I am checking results. What call was entered for C[C@]1(Cn2ccnn2)[C@H](C(=O)O)N2C(=O)C[C@H]2S1(=O)=O ?
inactive

Query: recorded result category for COC(=O)[C@H](C)Cl in this test
inactive

Hello, I am checking results. What call was entered for Nc1c2ccccc2nc2ccccc12 ?
inactive

Record request — test call for CCC(C(C)O)[N+](=O)[O-] (centres undefined)
inactive

In this assay, the call recorded for Cc1cccc([N+](=O)[O-])c1C was what?
inactive

Entry CCOC(C)=O : call = ?
inactive

I would be grateful if you could indicate the recorded call for Nc1nc(N)nc(-c2ccccc2)n1 .
inactive

Status in this test for Nc1ccccc1C(=O)OC1CCCCC1 ?
inactive

Name the outcome recorded for CCCCCCCCCCCCCCC1CO1 (centres undefined) in the assay.
inactive

Per the assay record, what outcome was assigned to CCCCCCC(C)OC(=O)C[S][Sn]([CH2]CCC)([S]CC(=O)OC(C)CCCCCC)[S]CC(=O)OC(C)CCCCCC (centres undefined) ?
inactive

----------
Test system: CCRIS mutagenicity, Ames/micronucleus/aberration tests
Experiment: CCRIS mutagenicity studies
Conditions: Test System: AMES SALMONELLA TYPHIMURIUM; Strain/Indicator: TA102; Metabolic Activation: NONE; Method: STANDARD PLATE
Calls of active or inactive are those of the source. How the calls were made is not given here.
A correct response names exactly one class from T for active, F for inactive

Hi team, can someone confirm the assay call for CC(C(=O)O)c1cccc(C(=O)c2ccccc2)c1 (stereo unspecified) ?
F

Recorded test call requested for C[C@@H]1Cc2ccc(C(=O)N[C@@H](Cc3ccccc3)C(=O)O)c(O)c2C(=O)O1
F

Hey, what did the test say about CNc1ccc(NCCO)c2c1C(=O)c1ccccc1C2=O ?
F

Could you check what this test reported for O=[As]O ?
F

What did the test return for N[C@@H](CS)C(=O)NCC(=O)O ?
T

Record lookup: outcome of this test for N/C(=N\O)c1ccc(O)c(O)c1 ?
F

----------
Tested on: CCRIS mutagenicity, Ames/micronucleus/aberration tests
Experiment: CCRIS mutagenicity studies
Details: Test System: AMES SALMONELLA TYPHIMURIUM; Strain/Indicator: TA98; Metabolic Activation: NONE; Method: STANDARD PLATE
Calls of active or inactive are those of the source. How the calls were made is not given here.
readout: mutagenic call

Illustrative cases are given below, each with its answer.
Query CCCCOc1cc(N=Nc2ccc(NCCO)cc2NCCO)ccc1N=Nc1c(S(=O)(=O)O)cc2ccc(N)cc2c1O on CCRIS mutagenicity, Ames/micronucleus/aberration tests; mutagenic call returned: inactive; negative

With CCRIS mutagenicity, Ames/micronucleus/aberration tests as the test system, Nc1ccc2c([nH]c3ccccc32)c1[N+](=O)[O-] showed mutagenic call of active; positive

Reported CCRIS mutagenicity, Ames/micronucleus/aberration tests mutagenic call for item CN1CCN(c2ccc3nc(CCCc4ccc5nc(-c6ccc(N(CCCl)CCCl)cc6)[nH]c5c4)[nH]c3c2)CC1 was inactive; negative

Item O=C(O)/C=C/c1cccc([N+](=O)[O-])c1 was tested on CCRIS mutagenicity, Ames/micronucleus/aberration tests; the reported mutagenic call is inactive; negative

Given the compound O=[N+]([O-])c1ccc2ccc3cc4c(c5ccc1c2c35)CCCC4 and test system CCRIS mutagenicity, Ames/micronucleus/aberration tests, the measured mutagenic call is active; positive

Continuing:
So the reported mutagenic call for CCO[Si](C)(C)OCC , on CCRIS mutagenicity, Ames/micronucleus/aberration tests, turned out to be inactive; negative

Result for CCCCOCC=O , tested on CCRIS mutagenicity, Ames/micronucleus/aberration tests, mutagenic call: inactive; negative

Tested on CCRIS mutagenicity, Ames/micronucleus/aberration tests, the item CC(=O)OC(C)=O showed mutagenic call equal to inactive; negative

Result for O=[N+]([O-])c1ccc2ccc3c([N+](=O)[O-])c4ccccc4c4ccc1c2c34 , tested on CCRIS mutagenicity, Ames/micronucleus/aberration tests, mutagenic call: active; positive

Known value: CCRIS mutagenicity, Ames/micronucleus/aberration tests mutagenic call of the compound O=C(OCC1CCC2OC2C1)C1CCC2OC2C1 (stereo not drawn) equals inactive; negative
